Sequence of the target: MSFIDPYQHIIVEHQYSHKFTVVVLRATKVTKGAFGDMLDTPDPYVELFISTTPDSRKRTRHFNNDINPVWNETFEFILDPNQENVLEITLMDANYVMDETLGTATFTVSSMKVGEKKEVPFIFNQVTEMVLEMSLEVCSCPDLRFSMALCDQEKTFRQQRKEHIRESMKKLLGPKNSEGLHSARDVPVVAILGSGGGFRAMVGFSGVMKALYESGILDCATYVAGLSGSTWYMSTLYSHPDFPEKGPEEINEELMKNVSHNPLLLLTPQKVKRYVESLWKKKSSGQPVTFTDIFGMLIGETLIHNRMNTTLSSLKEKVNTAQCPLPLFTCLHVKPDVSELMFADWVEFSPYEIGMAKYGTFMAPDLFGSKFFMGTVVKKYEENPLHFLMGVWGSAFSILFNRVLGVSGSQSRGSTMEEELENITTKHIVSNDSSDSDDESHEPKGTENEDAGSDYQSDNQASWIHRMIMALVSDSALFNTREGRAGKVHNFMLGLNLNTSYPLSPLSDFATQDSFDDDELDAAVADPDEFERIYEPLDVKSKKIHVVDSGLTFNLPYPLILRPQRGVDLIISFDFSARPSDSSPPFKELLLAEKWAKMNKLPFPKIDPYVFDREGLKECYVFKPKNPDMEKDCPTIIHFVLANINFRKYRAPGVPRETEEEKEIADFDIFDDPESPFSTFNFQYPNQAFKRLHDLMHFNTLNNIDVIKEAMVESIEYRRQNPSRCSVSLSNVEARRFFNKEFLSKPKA

[
  {
    "compound": "O=C1NC(=O)/C(=C/c2ccc(C(=O)NC[C@@H]3C[C@@H](Oc4ccccc4Oc4ccccc4)CN3C(=O)c3ccccc3C(=O)c3ccc(F)cc3)cc2)S1 [Compound A-119]",
    "unit.abbreviation": "nM",
    "IC50": 30
  },
  {
    "compound": "O=C1NC(=O)/C(=C/c2ccc(C(=O)NC[C@@H]3C[C@@H](Oc4cccc5c4CCCC5)CN3C(=O)c3ccccc3C(=O)c3ccc(F)cc3)cc2)S1 [Compound A-77]",
    "unit.abbreviation": "nM",
    "IC50": 100
  },
  {
    "compound": "O=C1NC(=O)/C(=C/c2ccc(C(=O)NC[C@@H]3C[C@@H](Oc4ccccc4-c4cccc5c4OCO5)CN3C(=O)c3ccccc3C(=O)c3ccc(F)cc3)cc2)S1 [Compound A-102]",
    "unit.abbreviation": "nM",
    "IC50": 52
  }
]

###

Tested on: production of prostaglandin E2 by human fibroblasts
test.name: Inhibition of Production of Prostaglandin E2 in Human Fibroblasts (IL-1 stimulation)
Type: cell-based
conditions: Fibroblast; human fibroblasts under stimulation with IL-1
From the text: Test Example 2 Inhibition of Production of Prostaglandin E2 in Human Fibroblasts. […]
pIC50: −log10 of the molar value.
Overview of recorded pIC50 for various compounds
measurement.type: pIC50

[
  {
    "smiles.record": "O=C1NC(=S)S/C1=C\\c1ccc(CC[C@@H]2C[C@@H](OCc3ccccc3-c3ccccc3)CN2C(=O)c2ccccc2C(=O)c2ccc(F)cc2)cc1",
    "observed.result": 5.66
  },
  {
    "smiles.record": "Cc1ccccc1-c1ccccc1O[C@@H]1C[C@@H](CNC(=O)c2ccc(/C=C3\\SC(=O)NC3=O)cc2)N(C(=O)c2ccccc2C(=O)c2ccc(F)cc2)C1",
    "observed.result": 6.19
  },
  {
    "smiles.record": "O=C1NC(=O)/C(=C/c2ccc(C(=O)NC[C@@H]3C[C@@H](OCc4ccccc4-c4ccccc4)CN3C(=O)c3ccccc3C(=O)C3CCCCC3)cc2)S1",
    "observed.result": 6.48
  },
  {
    "smiles.record": "O=C1NC(=O)/C(=C/c2ccc(C(=O)NC[C@@H]3C[C@@H](Oc4ccccc4-c4cccc5c4OCO5)CN3C(=O)c3ccccc3C(=O)c3ccc(F)cc3)cc2)S1",
    "observed.result": 6.48
  },
  {
    "smiles.record": "O=C1NC(=S)S/C1=C\\c1ccc(NC(=O)[C@@H]2C[C@@H](OCc3ccccc3-c3ccccc3)CN2C(=O)c2ccccc2C(=O)c2ccc(Cl)cc2)cc1",
    "observed.result": 5.25
  }
]

Every entry's value here was drawn from patent US6147100A.
